Reported values: pIC50 for MET kinase (Homo sapiens, UniProt P08581), one per item.
pIC50: −log10 of the molar value.

• COc1ccccc1-c1c[nH]c2ncc(-c3cccc(C(=N)N4CCCCC4)c3)cc12 [AE42] = > 6.00

Record summary for COc1ccccc1-c1c[nH]c2ncc(-c3ccc(O)c(CN4CCCN(C)CC4)c3)cc12 [AE41] : reported pIC50 = 5.30 to 6.00

Record summary for COCCNc1ccc(-c2c[nH]c3ncc(-c4ccc(OC)c(OC)c4)cc23)cn1 [AE57] : reported pIC50 = 5.30 to 6.00

Record summary for COc1ccc(-c2cnc3[nH]cc(-c4ccc(N)nc4)c3c2)cc1OC [AE56] : reported pIC50 = > 6.00

Record summary for COc1ccccc1-c1c[nH]c2ncc(-c3ccc(CN(C)C)cc3)cc12 [AE8] : reported pIC50 = > 6.00

* * *

Target: PDK1 kinase (Homo sapiens)
Sequence (O15530 1-556): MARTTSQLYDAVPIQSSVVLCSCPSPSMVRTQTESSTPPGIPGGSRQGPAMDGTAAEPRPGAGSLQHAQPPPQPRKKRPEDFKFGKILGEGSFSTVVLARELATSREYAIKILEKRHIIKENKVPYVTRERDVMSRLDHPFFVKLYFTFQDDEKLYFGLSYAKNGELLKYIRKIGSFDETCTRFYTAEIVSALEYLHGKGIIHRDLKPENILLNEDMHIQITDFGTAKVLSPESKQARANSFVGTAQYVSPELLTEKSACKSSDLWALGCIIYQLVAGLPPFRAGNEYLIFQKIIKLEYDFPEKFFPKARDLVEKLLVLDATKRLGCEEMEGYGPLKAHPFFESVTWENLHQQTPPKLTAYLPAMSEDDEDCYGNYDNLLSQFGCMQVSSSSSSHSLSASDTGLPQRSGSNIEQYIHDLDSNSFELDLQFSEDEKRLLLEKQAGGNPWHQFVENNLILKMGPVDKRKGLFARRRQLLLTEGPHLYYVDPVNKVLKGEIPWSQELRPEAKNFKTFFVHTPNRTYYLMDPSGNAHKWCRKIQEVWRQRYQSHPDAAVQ
Measured IC50, listed per entry for reference.

Here's what some known entries look like.
* Nc1nc(-c2c[nH]c3ncc(-c4ccc5[nH]ccc5c4)cc23)cs1 [AE55] | < 1000 nM
* CNC(=O)c1cc(-c2cnc3[nH]cc(-c4ccccc4OC)c3c2)cs1 [AE2] | 1000 to 5000 nM
* COc1cc(-c2cnc3[nH]cc(-c4ccc(O)cc4)c3c2)ccc1O [AE58] | < 1000 nM
* Oc1cccc(-c2cnc3[nH]cc(-c4ccn[nH]4)c3c2)c1 [AE49] | 1000 to 5000 nM
* COc1ccccc1-c1c[nH]c2ncc(-c3ccc(S(N)(=O)=O)cc3)cc12 [AE21] | 1000 to 5000 nM
* Oc1cccc(-c2cnc3[nH]cc(-c4ccc(O)c(F)c4)c3c2)c1 [AE48] | 1000 to 5000 nM
* COc1cc(-c2cnc3[nH]cc(-c4ccccc4OC)c3c2)ccc1O [AE64] | 1000 to 5000 nM
* COc1ccccc1-c1c[nH]c2ncc(-c3ccc4[nH]cc(CC(=O)O)c4c3)cc12 [AE10] | 1000 to 5000 nM

Record summary for COc1ccccc1-c1c[nH]c2ncc(-c3csc(C(=O)N(C)C)c3)cc12 [AE3] : reported IC50 = 1000 to 5000 nM

Record summary for COc1ccccc1-c1c[nH]c2ncc(-c3cc[nH]c(=O)c3)cc12 [AE9] : reported IC50 = 1000 to 5000 nM

Record summary for N#Cc1cc(-c2cnc3[nH]cc(-c4ccc5[nH]ccc5c4)c3c2)ccc1O [AE20] : reported IC50 = 1000 to 5000 nM

Record summary for COc1ccccc1-c1c[nH]c2ncc(-c3ccc(S(N)(=O)=O)s3)cc12 [AE11] : reported IC50 = 1000 to 5000 nM

* * *

Biological target: T315I mutant form of BCR-ABL in Ba/F3 cells (Homo sapiens, UniProt P00519, T315I)
Construct: the other entry of the earlier key: BCR (P11274, Breakpoint cluster region protein)
Sequence (P00519 242-493 T315I limits assumed): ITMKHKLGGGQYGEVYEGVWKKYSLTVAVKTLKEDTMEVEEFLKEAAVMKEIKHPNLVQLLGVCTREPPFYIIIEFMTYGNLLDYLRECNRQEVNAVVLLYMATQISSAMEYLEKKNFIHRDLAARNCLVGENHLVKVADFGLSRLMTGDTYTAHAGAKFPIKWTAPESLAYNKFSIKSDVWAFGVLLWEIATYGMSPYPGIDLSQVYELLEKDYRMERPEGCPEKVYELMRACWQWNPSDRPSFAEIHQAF
Assay: Abl_T315I p-ELISA Cellular Assay (BCR-ABL phospho-ELISA)
Conditions: 60-120 minutes incubation
Experimental: Cells (Ba/F3 cells transfected with WT BCR-ABL, other kinases, or T315I, Y253F, M351T, E255K, or other mutant forms of BCR-ABL) were grown in the absence of IL-3 at least ½ week before the assay. […] Substrate Reagent A and Substrate Reagent B (Pierce Cat#37070 SuperSignal ELISA Pico Chemiluminescent Substrate) were added immediately before use (10 ml resultant solution per plate). 100 μl substrate were added per well, mixed for 1 minute, and chemiluminescent signal was measured with a luminometer.
pIC50: −log10 of the molar value.
parameter_measured: pIC50

Here's what some known entries look like.
* N#Cc1cc(-c2cnc3[nH]cc(-c4ccc5[nH]ccc5c4)c3c2)ccc1O [AE20] | > 7.00
* COc1ccccc1-c1c[nH]c2ncc(-c3csc(C(=O)N(C)C)c3)cc12 [AE3] | > 7.00
* COc1ccccc1-c1c[nH]c2ncc(-c3cccc(C(=N)N4CCCCC4)c3)cc12 [AE42] | > 7.00
* CCc1ccccc1-c1c[nH]c2ncc(-c3cncc(C(=O)N(C)C)c3)cc12 [AE15] | 6.00 to 7.00
* O=C(c1cccc(-c2cnc3[nH]cc(-c4ccccc4F)c3c2)c1)N1CCOCC1 [AE29] | 6.00 to 7.00

API: the following record is the query input.
Assay T315I mutant form of BCR-ABL in Ba/F3 cells (Homo sapiens, UniProt P00519, T315I), sample COc1ccccc1-c1c[nH]c2ncc(-c3cncc(C(=O)N(C)CCN(C)C)c3)cc12 [AE5] , pIC50 read: > 7.00

* * *

biological target: T315I mutant form of BCR-ABL in Ba/F3 cells (Homo sapiens, UniProt P00519, T315I); construct: the other entry of the earlier key: BCR (P11274, Breakpoint cluster region protein); test: Abl_T315I p-ELISA Cellular Assay (BCR-ABL phospho-ELISA); conditions: 60-120 minutes incubation
parameter_measured: IC50

Here's what some known entries look like.
* COc1ccccc1-c1c[nH]c2ncc(-c3csc(C(=O)N4CCN(C)CC4)c3)cc12 | 0.1 to 1 µM
* COc1cccc(OC)c1-c1c[nH]c2ncc(-c3cccc(C(=O)N4CCOCC4)c3)cc12 | < 0.1 µM
* COc1ccccc1-c1c[nH]c2ncc(-c3ccc(O)c(C(=O)N(C)CCN(C)C)c3)cc12 | < 0.1 µM
* CNC(=O)c1cc(-c2cnc3[nH]cc(-c4ccccc4OC)c3c2)cs1 | 0.1 to 1 µM

Record summary for Oc1cccc(-c2cnc3[nH]cc(-c4ccc(O)c(F)c4)c3c2)c1 : reported IC50 = 0.1 to 1 µM

* * *

Reported values: IC50 for Autophosphorylated AurA kinase (Homo sapiens, UniProt O14965), one per item.

Here's what some known entries look like.
• COc1ccccc1-c1c[nH]c2ncc(-c3ccc(S(N)(=O)=O)s3)cc12 = 500 to 5000 nM
• COCCOc1ccc(-c2cnc3[nH]cc(-c4ccccc4OC)c3c2)cc1OCCOC = 500 to 5000 nM
• CNC(=O)c1cncc(-c2cnc3[nH]cc(-c4ccccc4OC)c3c2)c1 = 500 to 5000 nM
• COc1ccccc1-c1c[nH]c2ncc(-c3ccc[nH]3)cc12 = 500 to 5000 nM

API: the following record is the query input.
Assay Autophosphorylated AurA kinase (Homo sapiens, UniProt O14965), sample COc1ccccc1-c1c[nH]c2ncc(-c3cccc(S(C)(=O)=O)c3)cc12 , IC50 read: 500 to 5000 nM

* * *

target: Abl T315I kinase domain (unphosphorylated) (Mus musculus, UniProt P00520, T315I); construct: purified and unphosphorylated T315I Abl kinase domain; made in house; host or cells: E. coli BL21(DE3) strains; experiment: Abl_T315I Bioassay (c-Abl PK/LDH coupled enzyme assay); type: biochemical; details: 10 μM ATP
Sequence (P00520 242-493 T315I limits assumed): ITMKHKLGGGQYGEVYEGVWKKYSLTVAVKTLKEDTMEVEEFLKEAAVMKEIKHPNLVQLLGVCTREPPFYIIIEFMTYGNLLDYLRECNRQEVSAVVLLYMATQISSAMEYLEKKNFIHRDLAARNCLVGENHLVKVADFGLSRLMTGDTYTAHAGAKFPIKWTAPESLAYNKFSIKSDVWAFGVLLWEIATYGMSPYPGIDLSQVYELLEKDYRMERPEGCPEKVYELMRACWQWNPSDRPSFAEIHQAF
parameter_measured: IC50

Here's what some known entries look like.
* COc1ccccc1-c1c[nH]c2ncc(-c3cccc(C(=N)N4CCCCC4)c3)cc12 [AE42] | < 50 nM
* N#Cc1cc(-c2cnc3[nH]cc(-c4ccc5[nH]ccc5c4)c3c2)ccc1O [AE20] | < 50 nM
* COc1ccccc1-c1c[nH]c2ncc(-c3ccc[nH]3)cc12 [AE67] | < 50 nM
* Oc1cccc(-c2cnc3[nH]cc(Sc4ccccc4)c3c2)c1 [AE51] | 50 to 200 nM
* COc1ccccc1-c1c[nH]c2ncc(-c3ccc4c(c3)C(=O)NCC(=O)N4)cc12 [AE12] | < 50 nM

API: the following record is the query input.
Record summary for COc1ccccc1-c1c[nH]c2ncc(-c3cccc(S(C)(=O)=O)c3)cc12 [AE13] : reported IC50 = < 50 nM

meta.source: patent US7709645B2
